biological target: Human TREM2 (Homo sapiens, UniProt Q9NZC2); construct: expressed in transfected cells; assay: Human TREM2 activity: cellular phosphorylation of Syk (AlphaLISA SureFire Ultra p-SYK) in HEK293/DAP12+TREM2 stable cell line; type: cell-based; conditions: phospho-Syk AlphaLISA signal, HEK293/DAP12+TREM2 cells; concentration giving 50% of maximal response; read-out: EC50
Sequence (Q9NZC2 19-230): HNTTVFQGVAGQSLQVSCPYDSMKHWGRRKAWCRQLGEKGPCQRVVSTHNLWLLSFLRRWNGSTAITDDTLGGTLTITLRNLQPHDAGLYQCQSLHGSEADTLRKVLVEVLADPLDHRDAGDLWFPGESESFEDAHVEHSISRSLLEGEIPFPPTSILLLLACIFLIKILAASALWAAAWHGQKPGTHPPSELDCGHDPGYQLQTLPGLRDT
Sequence (O43914 22-113 partner): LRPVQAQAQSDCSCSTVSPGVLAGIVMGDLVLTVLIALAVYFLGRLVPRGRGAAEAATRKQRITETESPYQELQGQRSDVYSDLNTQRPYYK
QUANTITY KIND: EC50

Field EC50 (Human TREM2 (Homo sapiens, UniProt Q9NZC2)), entry Cc1nc2c(-c3ccc(Cl)cc3F)nc(N3CCO[C@@H](c4cnn(C)c4)C3)cc2c(=O)n1C (single isomer, unassigned) [Example 125A] : 10 to 100 nM

Field EC50 (Human TREM2 (Homo sapiens, UniProt Q9NZC2)), entry Cc1nc2c(-c3ccc(Cl)cc3F)nc(N3CCOC4(CCCC4)C3)nc2c(=O)n1C : > 1000 nM

Field EC50 (Human TREM2 (Homo sapiens, UniProt Q9NZC2)), entry Cc1cc([C@H]2CN(c3cc4c(=O)n(C)c(C(F)(F)F)nc4c(-c4ccc(F)cc4F)n3)C[C@@H](C)O2)ccn1 (single isomer, unassigned) [Example 189B] : 100 to 1000 nM

Field EC50 (Human TREM2 (Homo sapiens, UniProt Q9NZC2)), entry Cc1nc2c(-c3ccc(F)cc3F)nc(N3C[C@@H](c4cnn(C)c4)OC(F)(F)C3)cc2c(=O)n1C (single isomer, unassigned) [Example 166A] : 1 to 10 nM

Field EC50 (Human TREM2 (Homo sapiens, UniProt Q9NZC2)), entry Cc1nc2c(-c3ccc(F)cc3C#N)nc(N3C[C@@H](C)O[C@@H](c4cnn(C5CC5)c4)C3)cc2c(=O)n1C (single isomer, unassigned) [Example 201B] : > 1000 nM

Field EC50 (Human TREM2 (Homo sapiens, UniProt Q9NZC2)), entry Cc1cc([C@H]2CN(c3nc(-c4ccc(F)cc4F)c4nc(C)n(C)c(=O)c4n3)CCO2)ccn1 (single isomer, unassigned) [Example 122B] : 100 to 1000 nM

Field EC50 (Human TREM2 (Homo sapiens, UniProt Q9NZC2)), entry Cc1nc(C2CN(c3nc(-c4ccc(Cl)cc4F)c4nc(C)n(C)c(=O)c4n3)CCO2)no1 (centres unmarked) : 10 to 100 nM

Field EC50 (Human TREM2 (Homo sapiens, UniProt Q9NZC2)), entry Cc1cc([C@H]2CN(c3nc(-c4cc(F)c(F)cc4F)c4nc(C(F)(F)F)n(C)c(=O)c4n3)CCO2)ccn1 (single isomer, unassigned) [Example 155B] : 10 to 100 nM

Field EC50 (Human TREM2 (Homo sapiens, UniProt Q9NZC2)), entry Cc1nc2c(-c3cc(F)c(F)cc3F)nc(N3C[C@H](c4cnn(C)c4)OC4(CC4)C3)cc2c(=O)n1C (single isomer, unassigned) [Example 146B] : > 1000 nM

Field EC50 (Human TREM2 (Homo sapiens, UniProt Q9NZC2)), entry Cc1nc2c(-c3ccc(C(F)(F)F)cc3F)cc([C@H]3CCO[C@@H](c4cnn(C5CC5)c4)C3)cc2c(=O)n1C (single isomer, unassigned) [Example 118B] : > 1000 nM

Field EC50 (Human TREM2 (Homo sapiens, UniProt Q9NZC2)), entry Cc1nc2c(-c3ccc(C(F)(F)F)cc3F)nc(N3C[C@@H](c4cnn(C)c4)OC(C)(C)C3)cc2c(=O)n1C (single isomer, unassigned) [Example 134A] : 10 to 100 nM

Field EC50 (Human TREM2 (Homo sapiens, UniProt Q9NZC2)), entry Cc1nc2c(-c3ccc(C(F)(F)F)nc3)nc([C@H]3CCO[C@@H](c4cnn(C5CC5)c4)C3)nc2c(=O)n1C (single isomer, unassigned) [Example 98B] : > 1000 nM

Field EC50 (Human TREM2 (Homo sapiens, UniProt Q9NZC2)), entry Cc1cc([C@H]2CN(c3nc(-c4ccc(C(F)(F)F)cc4F)c4nc(C)n(C)c(=O)c4n3)CCO2)ccn1 (single isomer, unassigned) [Example 21B] : < 1 nM

Field EC50 (Human TREM2 (Homo sapiens, UniProt Q9NZC2)), entry Cn1cc([C@H]2CN(c3nc(-c4cc(F)c(F)cc4F)c4nc(C(F)(F)F)n(C)c(=O)c4n3)CC3(CC3)O2)cn1 (single isomer, unassigned) [Example 162B] : 10 to 100 nM

Field EC50 (Human TREM2 (Homo sapiens, UniProt Q9NZC2)), entry Cc1nc2c(-c3ccc(Cl)cc3F)nc(N3CCO[C@H](c4cnn(C5CC5)c4)C3)nc2c(=O)n1C (single isomer, unassigned) [Example 26A] : 10 to 100 nM

Field EC50 (Human TREM2 (Homo sapiens, UniProt Q9NZC2)), entry Cc1cc([C@H]2CN(c3cc4c(=O)n(C)c(C)nc4c(-c4cc(F)c(F)cc4F)n3)CCO2)ccn1 (single isomer, unassigned) [Example 141B] : 10 to 100 nM

Field EC50 (Human TREM2 (Homo sapiens, UniProt Q9NZC2)), entry Cc1nc2c(-c3ccc(Cl)cc3F)nc(N3CCOC4(CCN(C)CC4)C3)nc2c(=O)n1C : > 1000 nM

Field EC50 (Human TREM2 (Homo sapiens, UniProt Q9NZC2)), entry Cc1nc2c(-c3ccc(C(F)F)nc3)nc(N3C[C@@H](c4cnn(C5CC5)c4)O[C@@H](C)C3)cc2c(=O)n1C (single isomer, unassigned) [Example 194A] : 10 to 100 nM

Field EC50 (Human TREM2 (Homo sapiens, UniProt Q9NZC2)), entry Cc1cc([C@H]2CN(c3cc4c(=O)n(C)c(C)nc4c(-c4ccc(F)cc4F)n3)C[C@@H](C)O2)ccn1 (single isomer, unassigned) [Example 182B] : 100 to 1000 nM

Field EC50 (Human TREM2 (Homo sapiens, UniProt Q9NZC2)), entry Cc1cc([C@H]2CN(c3cc4c(=O)n(C)c(C)nc4c(-c4ccc(Cl)cc4F)n3)CCO2)ccn1 (single isomer, unassigned) [Example 135B] : 100 to 1000 nM

Field EC50 (Human TREM2 (Homo sapiens, UniProt Q9NZC2)), entry Cc1cc([C@H]2CN(c3cc4c(=O)n(C)c(C)nc4c(-c4ccc(C(F)(F)F)nc4)n3)CC(C)(C)O2)ccn1 (single isomer, unassigned) [Example 161B] : 1 to 10 nM

Field EC50 (Human TREM2 (Homo sapiens, UniProt Q9NZC2)), entry Cc1nc2c(-c3ccc(Cl)cc3F)nc(N3CCN(CCF)C(c4cnn(C)c4)C3)nc2c(=O)n1C (centres unmarked) : 10 to 100 nM

Field EC50 (Human TREM2 (Homo sapiens, UniProt Q9NZC2)), entry Cc1cc([C@H]2CN(c3nc(-c4ccc(F)cc4F)c4nc(C(F)(F)F)n(C)c(=O)c4c3F)CCO2)ccn1 (single isomer, unassigned) [Example 174B] : 100 to 1000 nM

Values compiled from patent US20260200926A1.
